FYI, the data here is from PubChem BioAssay AID2060895.

Test system: PDC 899932-113-R3-J6 complex spheroid viability
test_name: Anticancer human tumor 899932-113-R3-J6-PDC patient-derived melanoma cell line growth inhibition [RAS]
run_parameters: curve of first compound; second compound 0.0316 µM
pIC50: −log10 of the molar value.
Hi there, I'd appreciate the recorded pIC50 for every entry that follows.

Observe how each entry below is paired with its result.
molecule	measured_value
Cc1nc(N2CCC3(CC2)COC(C)C3N)c(CO)nc1Sc1ccnc(N)c1Cl (configuration not stated) + C#Cc1c(F)ccc2cc(O)cc(-c3ncc4c(N5CC6CCC(C5)N6)nc(OCC56CCCN5CC(F)C6)nc4c3F)c12	< 5.00
C=CC(=O)Nc1cc(Nc2nccc(-c3cn(C)c4ccccc34)n2)c(OC)cc1N(C)CCN(C)C + C=CC(=O)N1CCN(c2nc(OCC3CCCN3C)nc3c(F)c(-c4nc(N)cc(C)c4C(F)(F)F)c(Cl)cc23)C(C)C1	< 6.00
C=CC(=O)N1CCN(c2nc(OCC3CCCN3C)nc3c(F)c(-c4nc(N)cc(C)c4C(F)(F)F)c(Cl)cc23)C(C)C1 (configuration not stated) + C#Cc1c(F)ccc2cc(O)cc(-c3ncc4c(N5CC6CCC(C5)N6)nc(OCC56CCCN5CC(F)C6)nc4c3F)c12	< 6.00
NC1c2ccccc2OC12CCN(c1cnc3c(N4CCCc5ncccc54)n[nH]c3n1)CC2 (configuration not stated) + C#Cc1c(F)ccc2cc(O)cc(-c3ncc4c(N5CC6CCC(C5)N6)nc(OCC56CCCN5CC(F)C6)nc4c3F)c12	< 5.00

For every record below, what is its pIC50?
1. NC1c2ccccc2OC12CCN(c1cnc3c(N4CCCc5ncccc54)n[nH]c3n1)CC2 (configuration not stated) + C=CC(=O)N1CCN(c2nc(OCC3CCCN3C)nc3c(F)c(-c4nc(N)cc(C)c4C(F)(F)F)c(Cl)cc23)C(C)C1
2. CC(=O)OC12COC1CC(O)C1(C)C(=O)C(O)C3=C(C)C(OC(=O)C(O)C(NC(=O)OC(C)(C)C)c4ccccc4)CC(O)(C(OC(=O)c4ccccc4)C21)C3(C)C (configuration not stated) + C=CC(=O)N1CCN(c2nc(OCC3CCCN3C)nc3c(F)c(-c4nc(N)cc(C)c4C(F)(F)F)c(Cl)cc23)C(C)C1
3. CC(=O)OC12COC1CC(O)C1(C)C(=O)C(O)C3=C(C)C(OC(=O)C(O)C(NC(=O)OC(C)(C)C)c4ccccc4)CC(O)(C(OC(=O)c4ccccc4)C21)C3(C)C (configuration not stated) + C#Cc1c(F)ccc2cc(O)cc(-c3ncc4c(N5CC6CCC(C5)N6)nc(OCC56CCCN5CC(F)C6)nc4c3F)c12

Response given:
1. < 5.00
2. > 7.50
3. > 7.50
